# reported melting point; entries follow
Quantity measured: melting point

>>> df
                                   molecule  quantity_measured        value_observed
0  Cc1nc(N2CCN(c3ccccc3)CC2)c([N+](=O)[O-])c(=O)[nH]1 [Example 4]      melting point       > 250 °C (dec.)
1  CCc1nc(C#N)c(N2CCN(c3ccccc3)CC2)nc1C [Example 75-1]      melting point          99 to 101 °C
2  Cc1nc(OC(C)C)c([N+](=O)[O-])c(N2CCN(c3ccc(F)cc3)CC2)n1 [Example 11]      melting point          98 to 100 °C
3  Cc1nc(OCC(F)(F)F)c([N+](=O)[O-])c(N2CCC(c3ccccc3)CC2)n1 [Example 9-2]      melting point         114 to 117 °C
4  Cc1nc(N2CCC(c3ccc(F)cc3)CC2)c([N+](=O)[O-])c(=O)[nH]1 [Example 7]      melting point  218 to 221 °C (dec.)

Value source: patent US6673795B2
